Provide the reported pIC50 of each item.
- MEASUREMENT_TARGET: Mitogen-activated protein kinase 3 (Homo sapiens)
- Sequence (P27361 whole entry): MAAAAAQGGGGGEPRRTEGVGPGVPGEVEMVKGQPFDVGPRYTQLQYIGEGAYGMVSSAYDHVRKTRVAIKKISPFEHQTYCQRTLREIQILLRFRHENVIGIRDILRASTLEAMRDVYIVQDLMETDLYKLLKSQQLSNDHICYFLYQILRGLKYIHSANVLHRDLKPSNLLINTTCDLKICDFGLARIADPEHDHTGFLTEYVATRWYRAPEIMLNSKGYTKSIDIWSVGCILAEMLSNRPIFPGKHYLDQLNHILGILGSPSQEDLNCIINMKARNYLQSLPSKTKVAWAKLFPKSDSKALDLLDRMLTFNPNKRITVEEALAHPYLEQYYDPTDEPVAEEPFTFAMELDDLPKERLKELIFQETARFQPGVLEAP
- PROTOCOL_DESCRIPTION: DRUGMATRIX: Protein Serine/Threonine Kinase, ERK1 enzyme inhibition (substrate: Myelin Basic Protein)
- Set-up: species or system Escherichia coli
- ASSAY_CONDITIONS: Not Active = under 50% inhibition at 10 µM; read-out: IC50
Worth noting: pIC50 values are minus log10 of concentrations stated in mol/L.

Prompt: Mitogen-activated protein kinase 3 (Homo sapiens) / pIC50 / "O=C(OC[C@H]1O[C@@H](OC(=O)c2cc(O)c(O)c(OC(=O)c3cc(O)c(O)c(O)c3)c2)[C@H](OC(=O)c2cc(O)c(O)c(OC(=O)c3cc(O)c(O)c(O)c3)c2)[C@@H](OC(=O)c2cc(O)c(O)c(OC(=O)c3cc(O)c(O)c(O)c3)c2)[C@@H]1OC(=O)c1cc(O)c(O)c(OC(=O)c2cc(O)c(O)c(O)c2)c1)c1cc(O)c(O)c(OC(=O)c2cc(O)c(O)c(O)c2)c1" : value?
Response: 5.39

Prompt: Mitogen-activated protein kinase 3 (Homo sapiens) / pIC50 / "CCCCCCNC(=O)n1cc(F)c(=O)[nH]c1=O" : value?
Response: 5.21

Prompt: Mitogen-activated protein kinase 3 (Homo sapiens) / pIC50 / "CCN(CC)C(=S)SSC(=S)N(CC)CC" : value?
Response: 5.82

Every entry's value here was drawn from ChEMBL document CHEMBL1909046.
